Molecular target: GalNAc(b1-3)Gal(a1-4)Gal(b1-4)GlcNAc
Test: glycan array binding signal (z-score within array); higher = stronger binding
Details: glycan notation: IUPAC condensed, linker removed
The full list was thinned out, with the strongest signals kept by preference.
VALUE TYPE: glycan array binding signal (z-score)

BINDER	glycan array binding signal (z-score)
KISKRILTGKK [NK11 (Sus scrofa)]	0.262
GS13455A-bfa-343-25-343 (Bacteroides fragilis) (protein) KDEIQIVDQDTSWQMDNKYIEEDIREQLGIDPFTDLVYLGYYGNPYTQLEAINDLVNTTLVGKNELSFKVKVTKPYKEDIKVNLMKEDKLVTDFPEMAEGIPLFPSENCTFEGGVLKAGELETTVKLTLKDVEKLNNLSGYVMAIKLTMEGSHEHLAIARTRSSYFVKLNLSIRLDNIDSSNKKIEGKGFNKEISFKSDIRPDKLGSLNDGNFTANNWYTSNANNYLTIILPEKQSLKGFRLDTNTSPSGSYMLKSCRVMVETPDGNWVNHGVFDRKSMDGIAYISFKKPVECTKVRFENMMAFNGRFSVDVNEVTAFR	1.43

Now consider a different binder.
Qu. Consider the binder shown here: SynCAM (Mus musculus) (protein) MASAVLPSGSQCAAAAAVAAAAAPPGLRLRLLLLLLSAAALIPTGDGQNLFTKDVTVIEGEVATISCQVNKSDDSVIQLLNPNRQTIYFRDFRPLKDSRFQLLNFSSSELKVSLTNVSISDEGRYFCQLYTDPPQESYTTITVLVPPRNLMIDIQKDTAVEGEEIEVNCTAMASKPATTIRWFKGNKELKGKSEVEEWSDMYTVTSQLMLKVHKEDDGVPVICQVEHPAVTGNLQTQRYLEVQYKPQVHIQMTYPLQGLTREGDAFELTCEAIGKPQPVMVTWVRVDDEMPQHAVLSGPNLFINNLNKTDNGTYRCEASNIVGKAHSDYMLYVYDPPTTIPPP What is its recorded glycan array binding signal (z-score)?
Ans. 2.45
